Tested on: HCT-116 colon
Assay: NCI tumour cell line growth inhibition, 48 h
Listing of recorded TGI by entry.

# Compound, TGI
measured = [
    ("COc1ccc(C2Oc3ccc(Cl)cc3C=C2[N+](=O)[O-])cc1 (stereo not drawn)", "> 100 µM"),
]

### Prompt # input compound: `CCc1c(O)cc(=O)oc1-c1ccc(OC)c(OC)c1` ; wanted: its TGI
### Response > 100 µM

### Prompt Again, but for `COc1ccc2nc(NC(=O)/C(C#N)=C/c3ccccc3)sc2c1`
### Response > 100 µM

###

Test system: HCT-15 colon
Experiment: NCI tumour cell line growth inhibition, 48 h
Listing of recorded TGI by entry.

Solved cases (3 shown):
# Molecule, TGI
records = [
    ("CCN1C(=S)N(CC)C2C1NC(=S)N2/N=C/C=C/c1ccccc1OC (configuration not stated)", "> 100 µM"),
    ("COc1cc(/C=C2\\C[C@H]3[C@@H]4CCc5cc(OCCN6CCCC6)ccc5[C@H]4CC[C@]3(C)C2=O)cc(OC)c1OC", "3.77 µM"),
    ("N#CNC(N)=NCc1ccccc1", "> 100 µM"),
]

### Prompt Checklist item: TGI tested on HCT-15 colon, entry COc1nc2c(c(O)c(C)c(=O)n2OC2OCC(OC(C)=O)C(OC(C)=O)C2OC(C)=O)c(=O)n1C (configuration not stated) , value?
### Response > 100 µM
